# Lookup of reported Iron excreted, NET Urine, per μmole keyed by entry
Experiment: Iron excretion (urine and stool) by hypertransfused iron-overloaded rats
Assay type: in vivo, Sprague-Dawley rats
Conditions: po, 100 mg/kg, normalized to molar dose
// note: answer is a bare numeric in µg/kg/day/µmol

Completed entries (count: 4):
> print(dat)
                                   compound  assay.value
1  CC(=O)N(O)CCCCCNC(=O)CCC(=O)N(O)CCCCCNC(=O)CCC(=O)N(O)CCCCCN [DFO, reference compound]         0.03
2  CCC(=O)NCCCCCN(OC(=O)CC)C(=O)CCC(=O)NCCCCCN(OC(=O)CC)C(=O)CCC(=O)NCCCCCN(OC(=O)CC)C(C)=O         0.26
3  CCCCCCCCCCCCCC(=O)NCCCCCN(OC(=O)CC)C(=O)CCC(=O)NCCCCCN(OC(=O)CC)C(=O)CCC(=O)NCCCCCN(OC(=O)CC)C(C)=O         0.31
4  CCCCC(=O)NCCCCCN(OC(=O)CCCC)C(=O)CCC(=O)NCCCCCN(OC(=O)CCCC)C(=O)CCC(=O)NCCCCCN(OC(=O)CCCC)C(C)=O         0.68

With those in mind, consider the next compound.
Task: Dear colleague, please send me the reported Iron excreted, NET Urine, per μmole for CCCC(=O)NCCCCCN(OC(=O)CCC)C(=O)CCC(=O)NCCCCCN(OC(=O)CCC)C(=O)CCC(=O)NCCCCCN(OC(=O)CCC)C(C)=O when you can.
Output: 0.25

###

Assay: Iron excretion (urine and stool) by hypertransfused iron-overloaded rats
Type: in vivo, Sprague-Dawley rats
Details: po, 100 mg/kg, normalized to molar dose
Iron excreted, NET Stool, per μmole vs 2 µg/kg/day/µmol: at or above is Y, below is N.

Here's what some known entries look like.
> print(dat)
                                   compound  discrete.label
1  CCCCCCCCCCCCCC(=O)NCCCCCN(OC(=O)CC)C(=O)CCC(=O)NCCCCCN(OC(=O)CC)C(=O)CCC(=O)NCCCCCN(OC(=O)CC)C(C)=O               Y
2  CCC(=O)NCCCCCN(OC(=O)CC)C(=O)CCC(=O)NCCCCCN(OC(=O)CC)C(=O)CCC(=O)NCCCCCN(OC(=O)CC)C(C)=O               N
3  CC(=O)N(O)CCCCCNC(=O)CCC(=O)N(O)CCCCCNC(=O)CCC(=O)N(O)CCCCCN [DFO, reference compound]               N
4  CCCCC(=O)NCCCCCN(OC(=O)CCCC)C(=O)CCC(=O)NCCCCCN(OC(=O)CCCC)C(=O)CCC(=O)NCCCCCN(OC(=O)CCCC)C(C)=O               Y

Let us examine a further case.
Task: Can CCCC(=O)NCCCCCN(OC(=O)CCC)C(=O)CCC(=O)NCCCCCN(OC(=O)CCC)C(=O)CCC(=O)NCCCCCN(OC(=O)CCC)C(C)=O be said to have Iron excreted, NET Stool, per μmole at or above 2 µg/kg/day/µmol?
Output: Y

###

# Lookup of reported Iron excreted, GROSS Urine keyed by entry
Test: Iron excretion (urine and stool) by hypertransfused iron-overloaded rats
Type: in vivo, Sprague-Dawley rats
Conditions: ip, 100 mg/kg, acylated derivatives
// note: answer is a bare numeric in µg/kg/day

Completed entries (count: 3):
> print(dat)
                           molecular.string  unit.abbreviation  assay.value
1  CCCCCCCCCCCCCC(=O)NCCCCCN(OC(=O)CC)C(=O)CCC(=O)NCCCCCN(OC(=O)CC)C(=O)CCC(=O)NCCCCCN(OC(=O)CC)C(C)=O          µg/kg/day          134
2  CCCCC(=O)NCCCCCN(OC(=O)CCCC)C(=O)CCC(=O)NCCCCCN(OC(=O)CCCC)C(=O)CCC(=O)NCCCCCN(OC(=O)CCCC)C(C)=O          µg/kg/day          184
3  CCCC(=O)NCCCCCN(OC(=O)CCC)C(=O)CCC(=O)NCCCCCN(OC(=O)CCC)C(=O)CCC(=O)NCCCCCN(OC(=O)CCC)C(C)=O          µg/kg/day          174

With those in mind, consider the next compound.
Task: Dear colleague, please send me the reported Iron excreted, GROSS Urine for CCC(=O)NCCCCCN(OC(=O)CC)C(=O)CCC(=O)NCCCCCN(OC(=O)CC)C(=O)CCC(=O)NCCCCCN(OC(=O)CC)C(C)=O when you can.
Output: 179
